Source listed as ChEMBL document CHEMBL1250420.

This listing pairs molecules with measured Activity.
Test system: Rattus norvegicus
Experiment: Induction glutathione-S-transferase activity in rat liver at 15 mg/kg, po qd
Type: functional
Quantity kind: Activity (%)

Molecule	Measurement units	Numeric readout
COc1ccc(/C=C/C(=O)c2ccccc2)cc1	%	-10
O=C(/C=C/c1ccc(Cl)cc1)c1ccccc1	%	-20
O=C1CC(c2ccccc2Br)Oc2ccccc21 (stereo unspecified)	%	10
O=C(/C=C/c1cccs1)c1ccccc1O	%	10
O=C(/C=C/c1ccccc1)c1ccccc1O [2'-HYDROXYCHALCONE]	%	30
CSc1ccc(/C=C/C(=O)c2ccccc2)cc1	%	30

* * *

This listing pairs molecules with measured Activity.
System: Rattus norvegicus
Assay: Toxicity in Sprague-Dawley rat assessed as glutamic-oxalate transaminase level at 10 mg/kg/day, po (RVb = 71.4 +/- 7.8 U/L)
Details: in vivo

Test smiles	Activity [U/L]
O=c1cc(-c2ccccc2Br)oc2ccccc12	52.9
COc1ccc(/C=C/C(=O)c2ccccc2O)cc1OC	62.1
COc1ccc(/C=C/C(=O)c2ccccc2O)cc1	52.2
O=C(/C=C/c1ccc(Br)cc1)c1ccccc1O	61.7

* * *

System: Rattus norvegicus
Assay: Toxicity in Sprague-Dawley rat assessed as haemoglobin level at 10 mg/kg/day, po (RVb = 15.1 +/- 4.1 g/L)
Conditions: in vivo
This listing pairs compounds with measured Activity.

Compound	Target entity	Measurement units	Activity
O=C(/C=C/c1ccccc1)c1ccccc1O [2'-HYDROXYCHALCONE]	Rattus norvegicus	g/L	11.3
O=c1cc(-c2ccccc2Br)oc2ccccc12	Rattus norvegicus	g/L	9.6
O=C(/C=C/c1ccc(Br)cc1)c1ccccc1O	Rattus norvegicus	g/L	8.4
CN(C)c1ccc(/C=C/C(=O)c2ccccc2O)cc1	Rattus norvegicus	g/L	11.5
COc1ccc(/C=C/C(=O)c2ccccc2O)cc1	Rattus norvegicus	g/L	12.3
COc1ccc(/C=C/C(=O)c2ccccc2O)cc1OC	Rattus norvegicus	g/L	9.3
COc1ccc(C2CC(=O)c3ccccc3O2)cc1 (configuration not stated)	Rattus norvegicus	g/L	11.3

* * *

System: Rattus norvegicus
Experiment: Induction glutathione-S-transferase activity in rat liver at 15 mg/kg, po qd

Test smiles	Target entity	Activity / %
COc1ccc(/C=C/C(=O)c2ccccc2O)cc1	Rattus norvegicus	-10
O=C(/C=C/c1ccccn1)c1ccccc1O	Rattus norvegicus	20
O=C(/C=C/c1ccc(Cl)cc1)c1ccccc1O	Rattus norvegicus	-20
O=C(/C=C/c1ccc(Br)cc1)c1ccccc1O	Rattus norvegicus	-30
O=C(/C=C/c1ccc2c(c1)OCO2)c1ccccc1O	Rattus norvegicus	-20

* * *

System: TK-10
Test: Cytotoxicity against human TK10 cells
Format: functional, cell-based
Calls of active or inactive are those of the source. No cut-off for these calls is given here.
Classes used: active, inactive

Compound	Class assignment
COc1ccc(/C=C/C(=O)c2ccccc2O)cc1OC	active
O=c1cc(-c2ccccc2)oc2ccccc12 [FLAVONE]	inactive
O=C(/C=C/c1ccccn1)c1ccccc1O	active
O=c1cc(-c2ccc(Br)cc2)oc2ccccc12	inactive
O=C(/C=C/c1ccc(Cl)cc1)c1ccccc1O	active
O=C(/C=C/c1ccc(Cl)cc1)c1ccccc1 [4-CHLORO CHALCONE]	active
O=C(/C=C/c1ccc(Br)cc1)c1ccccc1O	inactive
COc1ccc(C2CC(=O)c3ccccc3O2)cc1 (stereo unspecified)	active
COc1ccc(/C=C/C(=O)c2ccccc2)cc1 [4-METHOXY CHALCONE]	active
O=c1cc(-c2ccccc2Br)oc2ccccc12	inactive
CN(C)c1ccc(/C=C/C(=O)c2ccccc2O)cc1	inactive
